Data provenance is paper PMC11617653.

Target: plasma kallikrein (PK) (Homo sapiens)
Sequence (P03952 391-638): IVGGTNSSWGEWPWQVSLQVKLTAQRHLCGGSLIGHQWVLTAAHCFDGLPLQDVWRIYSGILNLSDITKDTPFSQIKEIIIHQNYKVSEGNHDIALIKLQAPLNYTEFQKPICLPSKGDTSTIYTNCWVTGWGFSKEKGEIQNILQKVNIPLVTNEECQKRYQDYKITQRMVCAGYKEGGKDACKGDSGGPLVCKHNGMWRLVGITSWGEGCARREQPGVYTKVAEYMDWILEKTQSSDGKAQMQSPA
Sequence (P03952 20-390): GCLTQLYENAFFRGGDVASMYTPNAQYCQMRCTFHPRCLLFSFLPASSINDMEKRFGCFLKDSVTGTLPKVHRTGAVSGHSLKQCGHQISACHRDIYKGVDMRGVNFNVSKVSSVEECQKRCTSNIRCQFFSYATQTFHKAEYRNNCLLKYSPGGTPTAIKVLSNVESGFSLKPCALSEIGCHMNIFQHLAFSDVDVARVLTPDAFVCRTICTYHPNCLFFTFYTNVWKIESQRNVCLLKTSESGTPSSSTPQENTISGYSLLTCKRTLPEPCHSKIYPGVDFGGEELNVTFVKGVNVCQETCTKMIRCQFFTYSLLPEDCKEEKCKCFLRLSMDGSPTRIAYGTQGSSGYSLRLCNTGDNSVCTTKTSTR
Assay: Selectivity: inhibition of plasma kallikrein
Settings: read-out: PK K i
observed-property: Ki (nM)
I only need the number, in nM, no unit after it.

# count of solved cases: 3
compound	observed-result
Cc1ccc2cc1NC(=O)C(Cc1ccccc1)NC(=O)CCCNC(=O)Cc1ccc(cc1)NC(=O)C(NC(=O)C1CCC(CN)CC1)Cc1ccc-2cc1 (stereo not shown) [inhibitor 30]	60
Cc1ccc2cc1NC(=O)CNC(=O)CCCNC(=O)Cc1ccc(cc1)NC(=O)[C@@H](NC(=O)[C@H]1CC[C@H](CN)CC1)Cc1ccc-2cc1 [inhibitor 28]	31
Cc1ccc2cc1NC(=O)CNC(=O)CCCNC(=O)Cc1cccc(c1)NC(=O)[C@@H](NC(=O)[C@H]1CC[C@H](CN)CC1)Cc1ccc-2cc1 [inhibitor 40]	120

Next item in the queue.
Return Ki measured with plasma kallikrein (PK) (Homo sapiens) given this compound: CC(C)NC(=O)c1ccc2cc1NC(=O)CNC(=O)CCCNC(=O)Cc1ccc(cc1)NC(=O)C(NC(=O)C1CCC(CN)CC1)Cc1ccc-2cc1 (stereo not shown) [inhibitor 33]
9.4

###

Molecular target: factor XIa (fXIa) (Homo sapiens)
Sequence (P03951 19-387): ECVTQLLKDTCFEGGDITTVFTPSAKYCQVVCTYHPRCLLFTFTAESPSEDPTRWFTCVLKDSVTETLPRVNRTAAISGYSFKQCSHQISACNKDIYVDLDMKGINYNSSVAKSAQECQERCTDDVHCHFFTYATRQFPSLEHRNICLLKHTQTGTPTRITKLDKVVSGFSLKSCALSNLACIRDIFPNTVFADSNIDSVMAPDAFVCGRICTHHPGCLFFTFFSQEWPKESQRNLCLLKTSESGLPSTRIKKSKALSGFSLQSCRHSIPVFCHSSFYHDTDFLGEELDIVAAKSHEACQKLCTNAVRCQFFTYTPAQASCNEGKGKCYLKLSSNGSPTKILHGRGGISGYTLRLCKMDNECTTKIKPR
Sequence (P03951 388-625): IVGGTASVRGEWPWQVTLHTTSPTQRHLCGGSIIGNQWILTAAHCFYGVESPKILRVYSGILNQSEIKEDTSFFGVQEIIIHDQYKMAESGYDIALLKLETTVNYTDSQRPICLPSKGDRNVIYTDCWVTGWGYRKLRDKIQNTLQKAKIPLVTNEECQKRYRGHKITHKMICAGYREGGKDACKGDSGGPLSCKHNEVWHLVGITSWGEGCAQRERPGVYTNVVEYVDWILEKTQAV
observed-property: pKi
Scale: negative log10 of molar concentration, which is what pKi denotes.

Before answering, review these 2 worked examples.
molecule	observed-property	observed-result
Cc1ccc2cc1NC(=O)C(CCc1ccccc1)NC(=O)CCCNC(=O)Cc1ccc(cc1)NC(=O)C(NC(=O)C1CCC(CN)CC1)Cc1ccc-2cc1 (stereo not shown) [inhibitor 31]	pKi	7.06
NC[C@H]1CC[C@H](C(=O)N[C@H]2Cc3ccc(cc3)-c3ccc(C(=O)Nc4ccccc4)c(c3)NC(=O)CNC(=O)CCCNC(=O)Cc3ccc(cc3)NC2=O)CC1 [inhibitor 32]	pKi	8.28

# query: pKi of entry Cc1ccc2cc1NC(=O)CNC(=O)CCCNC(=O)Cc1cccc(c1)NC(=O)[C@@H](NC(=O)[C@H]1CC[C@H](CN)CC1)Cc1ccc-2cc1 [inhibitor 40]
6.96

So what does the record say about pKi for Cc1ccc2cc1NC(=O)CNC(=O)CCCNC(=O)Cc1ccc(cc1)NC(=O)[C@@H](NC(=O)[C@H]1CC[C@H](CN)CC1)Cc1ccc-2cc1 [inhibitor 28] ?
7.39

###

Target: human plasmin (Homo sapiens)
Construct: purchased Calbiochem
Sequence (P00747 581-810): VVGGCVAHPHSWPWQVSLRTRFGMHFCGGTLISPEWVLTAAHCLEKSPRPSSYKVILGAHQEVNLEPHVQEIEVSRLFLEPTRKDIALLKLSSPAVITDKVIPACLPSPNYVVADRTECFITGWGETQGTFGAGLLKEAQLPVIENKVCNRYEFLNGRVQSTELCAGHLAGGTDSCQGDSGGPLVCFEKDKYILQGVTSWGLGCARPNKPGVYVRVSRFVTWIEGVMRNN
Sequence (P00747 97-580): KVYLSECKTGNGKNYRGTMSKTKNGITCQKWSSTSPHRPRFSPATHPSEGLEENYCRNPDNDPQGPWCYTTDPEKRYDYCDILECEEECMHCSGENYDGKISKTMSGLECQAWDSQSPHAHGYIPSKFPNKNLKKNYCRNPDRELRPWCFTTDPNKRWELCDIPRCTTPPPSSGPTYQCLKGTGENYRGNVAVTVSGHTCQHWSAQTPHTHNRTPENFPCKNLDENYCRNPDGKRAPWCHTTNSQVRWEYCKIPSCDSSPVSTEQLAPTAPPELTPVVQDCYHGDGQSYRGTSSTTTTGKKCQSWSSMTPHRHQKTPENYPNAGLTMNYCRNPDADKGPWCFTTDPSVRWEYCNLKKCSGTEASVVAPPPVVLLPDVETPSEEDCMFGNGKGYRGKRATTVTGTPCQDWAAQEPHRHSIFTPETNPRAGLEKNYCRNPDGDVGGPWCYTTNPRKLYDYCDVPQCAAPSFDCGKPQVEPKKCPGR
Experiment: Inhibition of human plasmin, fluorogenic substrate Mes-DArg-Phe-Arg-AMC
Assay type: biochemical
Conditions: K i (nM), inhibition of plasmin, series two, substituted Bpa in P1', and acyclic analogues; steady-state velocities, equation 1
Property: Ki; scope: individual compounds
Output should be the measured figure followed by the unit it is expressed in.

Record excerpt, results attached:
compound	observed-result
Cc1ccc2cc1NC(=O)C(CCc1ccccc1)NC(=O)CCCNC(=O)Cc1ccc(cc1)NC(=O)C(NC(=O)C1CCC(CN)CC1)Cc1ccc-2cc1 (stereo not shown) [inhibitor 31]	0.831 nM
Cc1ccc2cc1NC(=O)CCN1CCN(CC1)C(=O)Cc1ccc(cc1)NC(=O)[C@@H](NC(=O)[C@H]1CC[C@H](CN)CC1)Cc1ccc-2cc1 [inhibitor 37]	13 nM

Record lookup: for human plasmin (Homo sapiens), what Ki belongs to Cc1ccc2cc1NC(=O)CNC(=O)CCCCNC(=O)c1ccc3cc(ccc3c1)NC(=O)[C@@H](NC(=O)[C@H]1CC[C@H](CN)CC1)Cc1ccc-2cc1 [inhibitor 43] ?
5.14 nM

Please tell me: Ki of Cc1ccc(-c2ccc(C[C@H](NC(=O)[C@H]3CC[C@H](CN)CC3)C(=O)Nc3ccc(CC(=O)NCCCC(=O)NCC(=O)O)cc3)cc2)cc1N [inhibitor 46] , system human plasmin (Homo sapiens)?
86.1 nM

Give the reported Ki for Cc1ccc2cc1NC(=O)[C@@H](N)CCCCNC(=O)Cc1ccc(cc1)NC(=O)[C@@H](NC(=O)[C@H]1CC[C@H](CN)CC1)Cc1ccc-2cc1 [inhibitor 35] (system: human plasmin (Homo sapiens)).
29.8 nM

Tell me reported Ki for Cc1ccc2cc1NC(=O)CCCNC(=O)CNC(=O)Cc1ccc(cc1)NC(=O)[C@@H](NC(=O)[C@H]1CC[C@H](CN)CC1)Cc1ccc-2cc1 [inhibitor 27] , tested with human plasmin (Homo sapiens).
17 nM

API: value(readout= Ki, system= human plasmin (Homo sapiens), query= Cc1ccc2cc1NC(=O)[C@H](N)CCCCNC(=O)Cc1ccc(cc1)NC(=O)[C@@H](NC(=O)[C@H]1CC[C@H](CN)CC1)Cc1ccc-2cc1 [inhibitor 34] )
36.5 nM
